Reference for the values: patent US4880798A

Tested on: Serratia marcescens 274
Assay: Protection against systemic bacterial infection in ICR mice (ED50)
Assay type: in vivo
Details: iv, 168 h; Serratia marcescens 274, i.p. infection, ICR mice; compound i.v. one hour after infection; survival 1 week; read-out: ED50
Measured ED50, listed per entry for reference.
Lab book: enter the figure in mg/kg, no units written.

substance_smiles=Cc1cc(SCC2=C(C(=O)O)N3C(=O)[C@@H](NC(=O)/C(=N\OCc4ccc(O)c(O)c4C(=O)O)c4csc(N)n4)[C@H]3SC2)n2nc(C(=O)O)nc2n1 test_readout=ED50 quantitative_result=0.97
substance_smiles=Cc1cc(SCC2=C(C(=O)O)N3C(=O)[C@@H](NC(=O)/C(=N\OCc4cc(C(=O)O)cc(O)c4O)c4csc(N)n4)[C@H]3SC2)n2nc(C(=O)O)nc2n1 test_readout=ED50 quantitative_result=0.55
substance_smiles=Cc1cc(SCC2=C(C(=O)O)N3C(=O)[C@@H](NC(=O)/C(=N\OCc4c(C(=O)O)ccc(O)c4O)c4csc(N)n4)[C@H]3SC2)n2nc(C(=O)O)nc2n1 test_readout=ED50 quantitative_result=0.5
substance_smiles=Cc1cc(SCC2=C(C(=O)O)N3C(=O)[C@@H](NC(=O)/C(=N\OCc4ccc(C(=O)O)c(O)c4O)c4csc(N)n4)[C@H]3SC2)n2nc(C(=O)O)nc2n1 test_readout=ED50 quantitative_result=0.75

Consider now this further compound.
Find the recorded ED50 belonging to Cc1cc(SCC2=C(C(=O)O)N3C(=O)[C@@H](NC(=O)/C(=N\OCc4cc(O)c(O)c(C(=O)O)c4)c4csc(N)n4)[C@H]3SC2)n2nc(C(=O)O)nc2n1 and report it.
0.72

* * *

Recorded MIC for the following compounds
Test system: Escherichia coli NIHJ JC 2
Enter your answer as a number in µg/mL; do not include the unit.

Use these answered entries as a reference point.
compound="Cc1cc(SCC2=C(C(=O)O)N3C(=O)[C@@H](NC(=O)/C(=N\\OCc4cc(C(=O)O)cc(O)c4O)c4csc(N)n4)[C@H]3SC2)n2nc(C(=O)O)nc2n1 [Compound 2]" assay_system="Escherichia coli NIHJ JC 2" quantitative_result=0.39
compound="CC(C)(O/N=C(\\C(=O)N[C@@H]1C(=O)N2C(C(=O)[O-])=C(C[n+]3ccccc3)CS[C@H]12)c1csc(N)n1)C(=O)O [CAZ, Ceftazidime, reference compound]" assay_system="Escherichia coli NIHJ JC 2" quantitative_result=0.2

Query (compound): Cc1cc(SCC2=C(C(=O)O)N3C(=O)[C@@H](NC(=O)/C(=N\OCc4ccc(C(=O)O)c(O)c4O)c4csc(N)n4)[C@H]3SC2)n2nc(C(=O)O)nc2n1 [Compound 5] ; field requested: MIC
0.78

Tell me the measured MIC of Cc1cc(SCC2=C(C(=O)O)N3C(=O)[C@@H](NC(=O)/C(=N\OCc4ccc(O)c(O)c4C(=O)O)c4csc(N)n4)[C@H]3SC2)n2nc(C(=O)O)nc2n1 [Compound 4] , please.
0.39

Which MIC is listed for Cc1cc(SCC2=C(C(=O)O)N3C(=O)[C@@H](NC(=O)/C(=N\OCc4c(C(=O)O)ccc(O)c4O)c4csc(N)n4)[C@H]3SC2)n2nc(C(=O)O)nc2n1 [Compound 1] ?
0.78

Quick check: MIC of Cc1cc(SCC2=C(C(=O)O)N3C(=O)[C@@H](NC(=O)/C(=N\OCc4cc(O)c(O)c(C(=O)O)c4)c4csc(N)n4)[C@H]3SC2)n2nc(C(=O)O)nc2n1 [Compound 3] ?
0.78
